IC50 for Vascular endothelial growth factor receptor 3 (Homo sapiens, UniProt P35916), merged from several publications.
Value expressed in nM; do not type the unit.

Challenge: For the record CCCNNC(=O)c1ccc(Nc2nccc(N(C)c3ccc4c(C)n(C)nc4c3)n2)cc1 , what value of IC50 is listed for Vascular endothelial growth factor receptor 3 (Homo sapiens, UniProt P35916)?
Response given: 37

Challenge: // repeat for O=C(Nc1ccc(Oc2ccnc(NC(=O)N3CC(O)C3)c2)c(F)c1)c1cn(-c2cccnc2)nn1 and report
Response given: 475

Challenge: Also, C[C@@H](Oc1ccc2[nH]nc(-c3ccc(N4CC5(C4)CN(S(C)(=O)=O)C5)nc3)c2c1)c1c(Cl)cncc1Cl please.
Response given: 2.1
